Source of measurements: ChEMBL document CHEMBL1201862

- Tested on: HOP-92
- assay-info: NCI tumour cell line growth inhibition, 48 h
Calls of active or inactive are those of the source. No stated cut-off is given here; in the data, active = GI50 up to about 1.1 µM and inactive = higher.
Record form. Attribute: GI50. Fill in for each entry.

Recorded GI50 of C=C[C@@]1(C)CC2(C=C(CO)C(O)O2)Oc2c1c(=O)oc1cccc(C)c21 (stereo not given in full) , please. 20.2 µM (inactive)

Now this one: O=C1N=C(c2ccccc2)O/C1=C\c1ccccc1 > 100 µM (inactive)

Follow-up item: c1ccc(C2=NNC3c4ccccc4-c4ccccc4N3C2)cc1 (stereo not given) 52.5 µM (inactive)

# iterate: CCOP(=O)(Cc1ccc(CP(=O)(OCC)OCC)n1C)OCC > 100 µM (inactive)

Quick one: NN/C(=N\S(=O)(=O)c1cc(Cl)c(Oc2ccc([N+](=O)[O-])cc2Cl)c(Cl)c1)Nc1ccc(Cl)cc1 19.9 µM (inactive)

COc1cc(C(=O)N(Cc2cccnc2)C(=S)N(Cc2cccnc2)C(=O)c2cc(OC)c(OC)c(OC)c2)cc(OC)c1OC ? 15.1 µM (inactive)

Let us now turn to COc1ccc(C(O)CNC(=O)c2ccccc2)cc1 (stereo not given) > 100 µM (inactive)

How about this compound: CC(=O)O[C@H]1CCc2c(cc(N)c3c2C(=O)C[C@]2(C)C([C@H](C)CCCC(C)C)CCC32C)C1(C)C (stereo not given in full) > 100 µM (inactive)

One more compound: COC(=O)C1=C(C)C(=O)[C@H]2C(C(=O)OC)CCCC[C@@H]12 (stereo not given in full) 32.3 µM (inactive)

Try CC(C)CC1N=C(OCc2ccccc2)OC1=O (stereo not given) next. > 100 µM (inactive)

====

- Tested on: Malme-3M
- assay-info: NCI tumour cell line growth inhibition, 48 h
The source made the active and inactive calls. Rule as the data show it: active = GI50 up to about 1.1 µM and inactive = higher.
Valid outcomes are listed here; reply with one: 1.0 for active, 0.0 for inactive

Outcome logged for COc1ccc(C(O)CNC(=O)c2ccccc2)cc1 (configuration not stated) in this assay: 0.0

Next entry: C#CC1(O)C(COP(=O)(O)OCC2OC(n3ccc(NCCCCCCCCCCCCCCCCCC)nc3=O)C(O)C2O)OC(n2ccc(N)nc2=O)C1O (configuration not stated) 1.0

Follow-up entry: N#CC(C#N)=C1SCC(=O)CS1 0.0

CCCC(S(=O)(=O)c1ccccc1)S(=O)(=O)c1ccccc1 , same question. 0.0

Quick one: CC(Oc1ccccc1Cl)C(=O)NN1C(=O)CC(=O)N(c2ccccc2)C1=S (configuration not stated) 0.0

Now give it for O=c1c(-c2ccccc2)c2oc(c1-c1ccccc1)CSCc1cccc(c1)CSC2 too. 0.0

How about C=Cc1c(-c2ccccc2)cnc2[nH]c3ccccc3c12 ? 0.0

Would you kindly repeat that for Cc1cc2nc(C#N)c(N3CCN(c4ccc([N+](=O)[O-])cc4)CC3)nc2cc1C ? 0.0

Note, next up: CCOc1ccc(NC(=O)CC2C(=O)Nc3ccccc3[S+]2[O-])cc1 (configuration not stated) 0.0

Check CN(C)Cc1c(O)ccc2c1c1c(n2C)C(=O)c2ccccc2C1=O too. 0.0

Please answer likewise for CC1=CC[C@@]2(CO)[C@@H]([C@@H]1C)[C@H]1CC[C@@H]3[C@@]4(C)CC[C@H](O)C(C)(C)[C@@H]4CC[C@@]3(C)[C@]1(C)C[C@@H]2O 0.0

And for NS(=O)(=O)c1nnc(NC(=O)c2ccccc2)s1 ? 0.0

Quick one: CN(C)c1ccc2c(c1)oc(=O)c1ccccc12 0.0

// query: CCC(C)N1CN(c2ccccc2)C2(CCN(CC3COc4ccccc4O3)CC2)C1=O (configuration not stated) 0.0

Param item: C#C/C=C\CCCCCCCCCCCCCC/C=C\CCCCC#CC(O)C#CCCCC/C=C\CCCCCC/C=C/C(O)C#C (configuration not stated) 0.0

Next up: c1csc(-c2ccc(-c3ccsc3)s2)c1 0.0

What would you report for COCn1c2ccc(OC(C)=O)cc2c2c(=O)oc(N(C)C)nc21 ? 0.0

Please do the same for O=C(COC(=O)c1cccc2c(=O)c3ccccc3[nH]c12)Nc1ccc(Cl)cc1 as well. 0.0

Consider next the compound c1ccc(-c2cnc(-c3ccc(-c4ncc(-c5ccccc5)o4)cc3)o2)cc1 in the same way. 0.0

Continue with Nc1ncnc2c1ncn2C1OC(COP(=O)(O)CP(=O)(O)O)C(O)C1O (configuration not stated) 0.0

Also CCCCCCCCCCCCCCCCCCNC(=S)NC=C1C(=O)c2ccccc2C1=O ? 0.0

Same thing, different compound: CC(C)/C(Cl)=N/OC(=O)Nc1cccc(C(F)(F)F)c1 0.0

Follow-up item: COc1cc(C2C(C(=O)Nc3ccccc3)=C(C)NC(C)=C2C(=O)Nc2ccccc2)ccc1O 0.0

Another: NC(Cc1ccccc1)C(=O)NC(Cc1ccccc1)NC(=O)C(Cc1c[nH]c2ccccc12)C(=O)O (configuration not stated) 0.0

Input O=C1C=C/C(=N/c2cccc3c(/N=C4/C=CC(=O)O4)cccc23)O1 0.0

Also CCCC(=O)OCC1OC(n2cc(F)c(=O)[nH]c2=O)C(F)C1OC(=O)CCC (configuration not stated) , if possible. 0.0

One more compound: S=C(N1CCN(c2ccc(Cl)c(Cl)c2)CC1)N1CCN(c2ccc(Cl)c(Cl)c2)CC1 0.0

Cool, now O=C1CCC2C(O)c3cc4c(cc3C(c3ccc5c(c3)OCO5)N12)OCO4 (configuration not stated) 0.0

What about this compound? COc1cccc(/C=C/c2cnc3ccccc3n2)c1OC 0.0

Thanks! And C/C(=N\NC(=O)c1ccncc1)c1cccc(F)c1 ? 0.0

Could you do the same for NN/C(=N\S(=O)(=O)c1cc(Cl)c(Oc2ccc([N+](=O)[O-])cc2Cl)c(Cl)c1)Nc1ccc(Cl)cc1 , please? 0.0

What do you have for NC(Cc1n[nH]c2ccccc12)C(=O)O (configuration not stated) ? 0.0

Then what about the compound Cc1cc2c(cc1C)NC(=O)C(NC(=O)/C=C/c1ccccc1)C=N2 (configuration not stated) ? 0.0

What do you get for COc1ccc2c(c1)Cc1cc(/N=[N+](\[O-])c3ccc4c(c3)Cc3cc(OC)ccc3-4)ccc1-2 ? 0.0

// same read-out, input: COC(=O)[C@]1(c2cc3ccccc3[nH]2)CC2CNC1C1OC(C)(C)OC21 (some centres not stated) 0.0

Then this compound: O=c1[nH]nc(Cc2ccc(Cl)cc2)n1/N=C/c1ccco1 0.0

What do we get for Cc1cc2c(C(C)C)c(O)c(O)c(/C=N\CCO)c2c(O)c1-c1c(C)cc2c(C(C)C)c(O)c(O)c(/C=N/CCO)c2c1O ? 0.0

What about this compound? O=C1c2ccccc2CC12CCC1(CC2)OCCO1 0.0

Repeat with CC(=O)N1CN2C(=O)CCC2c2ccccc21 (configuration not stated) 0.0

Proceed to CCSC12CC3c4cccc5c4C(CN5C(=O)c4ccccc4)CC3(O1)N(C)C2=O (configuration not stated) 0.0

Input CC(C)CC1N=C(OCc2ccccc2)OC1=O (configuration not stated) 0.0

What do you get for Cc1cccc(C)c1CO ? 0.0

====

Record form. Attribute: GI50. Fill in for each entry.
- System: SN12C
- assay-info: NCI tumour cell line growth inhibition, 48 h
Calls of active or inactive are those of the source. Rule as the data show it: active = GI50 up to about 1.1 µM and inactive = higher.

Which value of GI50 has been reported for CCOC(=O)/C(C#N)=C\C=C1/C=CN=C2NCCN21 in the records? > 100 µM (inactive)

Repeat with COc1ccc(CCn2nccc2C)cc1 80.9 µM (inactive)

// next record O=C1C(Cl)N(c2ccc([N+](=O)[O-])cc2)C1c1c[nH]c2ccccc12 (stereo unspecified) > 100 µM (inactive)

Now this one: COc1c(OC2OC(CO)C(O)C(O)C2O)cc2c(c1OC)-c1ccc(OC)c(=O)cc1[C@@H](NC(C)=O)CC2 (stereo partly specified) > 91 µM (inactive)

Check O=C1c2ccccc2CC12CCC1(CC2)OCCO1 too. > 100 µM (inactive)

Okay, and c1ccc2c(c1)CCN2CCN1CCc2ccccc21 ? > 10 µM (inactive)

Another compound to check: CC(=O)N(CCCCNC(=O)C(F)(F)F)CCCNC(=O)C(F)(F)F > 100 µM (inactive)

Moving on to CCOC(=O)c1nc2cc(F)c(N3CCOCC3)cc2[nH]c1=O > 100 µM (inactive)

Another: NC(Cc1ccccc1)C(=O)NC(Cc1ccccc1)NC(=O)C(Cc1c[nH]c2ccccc12)C(=O)O (stereo unspecified) > 100 µM (inactive)

Check N#Cc1ccccc1NC(=O)C(=O)C(C(=O)c1ccncc1)C1OC(=O)c2ccccc21 (stereo unspecified) too. > 100 µM (inactive)

Now try Cc1nc(N)sc1/N=N/c1ccccc1Br . 34.8 µM (inactive)

====

- Tested on: OVCAR-3
- assay-info: NCI tumour cell line growth inhibition, 48 h
The source made the active and inactive calls. No stated cut-off is given here; in the data, active = GI50 up to about 1.1 µM and inactive = higher.
endpoint: GI50

What is its GI50 for OVCAR-3? Entry: N#Cc1c(Cl)cccc1Oc1ccc(S(=O)(=O)/N=C(\NN)Nc2ccc(Cl)cc2)cc1 19.7 µM (inactive)

Next record, please: c1ccc2c(c1)nc1n2CSCC1 > 100 µM (inactive)

Now the compound COc1cc(C2S/C(=C/c3ccccc3)C(=O)N2c2cccc(Cl)c2)cc(OC)c1OC (stereo unspecified) 30.1 µM (inactive)

Quick one: CN(C)Cc1c(O)ccc2c1c1c(n2C)C(=O)c2ccccc2C1=O 4.75 µM (inactive)

Then O=C(O)Cc1ccc(N2N=C(c3ccccc3)CC2=O)cc1 ? > 100 µM (inactive)

Please answer likewise for COc1ccc(C(=O)C/C(=N/NC(N)=S)C(=O)Nc2ccccc2)cc1 > 100 µM (inactive)
